Molecular target: Innovin, lyophilized recombinant human tissue factor combined with phospholipids (human, UniProt P13726 33-295, limits assumed); also: test concentration or dose not given here
Test: cell-based or functional assay
observed property: T½ Max (seconds), coagulation of human plasma

binder: M1607 (antibody, V domains shown, complete MAb; FR4 is its own entry; also called H189/L3; TF7M1607) VH: EVQLVQSGAEVKKPGESLRISCKGSGFTFITYWIAWVRQMPGKGLEWMGDILPASSSTNYSPSFQGHVTISADKSISTAYLQWSSLKASDTAMYYCARSGYYGNSGFAYWGQGTLVTVSS VL: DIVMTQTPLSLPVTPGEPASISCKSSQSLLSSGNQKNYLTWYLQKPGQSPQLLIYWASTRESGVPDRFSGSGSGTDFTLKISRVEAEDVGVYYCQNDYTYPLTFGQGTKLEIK
uom: s
meas value: 152

binder: M1638 (antibody, V domains shown, complete MAb; FR4 is its own entry; also called H22/L138) VH: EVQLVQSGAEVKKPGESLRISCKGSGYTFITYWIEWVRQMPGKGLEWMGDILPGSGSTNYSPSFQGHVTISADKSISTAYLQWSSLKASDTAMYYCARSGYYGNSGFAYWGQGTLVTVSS VL: DIVMTQTPLSLPVTPGEPASISCKSSQSLLWFVNQKNYLTWYLQKPGQSPQLLIYHASTRESGVPDRFSGSGSGTDFTLKISRVEAEDVGVYYCQNDDSYPLTFGQGTKLEIK
uom: s
meas value: 163

binder: M1641 (antibody, V domains shown, complete MAb; FR4 is its own entry; also called H22/L335) VH: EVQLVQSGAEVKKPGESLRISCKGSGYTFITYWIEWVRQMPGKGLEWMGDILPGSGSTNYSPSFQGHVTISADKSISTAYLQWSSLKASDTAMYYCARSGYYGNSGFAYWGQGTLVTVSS VL: DIVMTQTPLSLPVTPGEPASISCKSSQSLLFSANQRNYLTWYLQKPGQSPQLLIYWASTRDSGVPDRFSGSGSGTDFTLKISRVEAEDVGVYYCQNDDTYPLTFGQGTKLEIK
uom: s
meas value: 162
